Data provenance is ChEMBL document CHEMBL3992527.

Examples of compounds with documented pKi follow.
target: UniProt P22748
Sequence (P22748 whole entry): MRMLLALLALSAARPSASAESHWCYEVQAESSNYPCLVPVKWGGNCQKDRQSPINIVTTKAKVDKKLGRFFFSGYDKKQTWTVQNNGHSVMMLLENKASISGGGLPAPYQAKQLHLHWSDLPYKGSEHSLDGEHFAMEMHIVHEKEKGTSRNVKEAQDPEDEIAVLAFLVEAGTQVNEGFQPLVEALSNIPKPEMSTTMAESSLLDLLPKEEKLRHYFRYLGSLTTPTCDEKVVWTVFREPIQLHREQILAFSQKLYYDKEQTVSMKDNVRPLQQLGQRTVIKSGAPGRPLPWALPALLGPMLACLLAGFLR
pKi: −log10 of the molar value.

Compound	pKi
O=C(Cc1ccccc1Nc1c(Cl)cccc1Cl)NCCOc1ccc2oc(=O)ccc2c1	8.25
CC(C)Cc1ccc(C(C)C(=O)NCCOc2ccc3ccc(=O)oc3c2)cc1 (racemic)	8.04
CC(C)Cc1ccc(C(C)C(=O)NCCOc2ccc3oc(=O)ccc3c2)cc1 (stereo not drawn)	9.36

----------
Examples of compounds with documented Ki follow.
target: Carbonic anhydrase 9 (Homo sapiens, UniProt Q16790)

Compound	Value Prefix	Ki [nM]
CC(C)Cc1ccc(C(C)C(=O)NCCOc2ccc3oc(=O)ccc3c2)cc1 (stereo unspecified)	>	100
COc1ccc2c(c1)c(CC(=O)NCCOc1ccc3oc(=O)ccc3c1)c(C)n2C(=O)c1ccc(Cl)cc1	=	31.3
COc1ccc2cc([C@H](C)C(=O)NCCOc3ccc4ccc(=O)oc4c3)ccc2c1	>	100
COc1ccc2c(c1)c(CC(=O)NCCOc1ccc3ccc(=O)oc3c1)c(C)n2C(=O)c1ccc(Cl)cc1	=	20.1
CC1=C(CC(=O)NCCOc2ccc3ccc(=O)oc3c2)c2cc(F)ccc2/C1=C\c1ccc([S+](C)[O-])cc1 (stereo unspecified)	=	27.9
O=C(c1ccccc1)c1ccc2n1CCC2C(=O)NCCOc1ccc2ccc(=O)oc2c1 (racemic)	>	100
